The measurements presented in this section are drawn from ChEMBL document CHEMBL1201862.

Entries and their GI50 values follow.
tested on: SK-MEL-2; test: NCI tumour cell line growth inhibition, 48 h
Calls of active or inactive are those of the source. No stated cut-off is given here; in the data, active = GI50 up to about 1.1 µM and inactive = higher.

# count of solved cases: 9
{"compound": "COc1ccc(/C=C2\\C=Cc3ccccc32)cc1OC", "GI50": "72.1 µM (inactive)"}
{"compound": "COc1cc2c(cc1OCc1ccccc1)NC(=S)[C@@H]1CCCN1C2=S", "GI50": "> 100 µM (inactive)"}
{"compound": "Nc1ncc2c(n1)-c1ccccc1OC2N1CCCC1 (stereo not given)", "GI50": "> 100 µM (inactive)"}
{"compound": "Cn1ccc(C(=O)NCCCCCNC(=O)c2ccn(C)c(=O)c2O)c(O)c1=O", "GI50": "> 100 µM (inactive)"}
{"compound": "c1ccc(B2OCC(C3OB(c4ccccc4)OC4COB(c5ccccc5)OC43)O2)cc1 (stereo not given)", "GI50": "> 100 µM (inactive)"}
{"compound": "COc1cc(/C=C2\\CCC/C(=C\\c3ccc(O)c(OC)c3)C2=O)ccc1O", "GI50": "3.56 µM (inactive)"}
{"compound": "CC(=O)Nc1ccc2c3c(cc(O)c2c1)N(C(=O)CCCC(=O)Nc1ccc2c4c(cc(O)c2c1)N(C(=O)OC(C)(C)C)CC4CCl)CC3CCl (stereo not given)", "GI50": "0.955 µM (active)"}
{"compound": "CC(C)N(C(=O)C12C3C4C5C3C1(C(=O)N(C(C)C)C(C)C)C5(C#N)C42)C(C)C (stereo not given)", "GI50": "> 100 µM (inactive)"}
{"compound": "CC1(C)OCC(C2CCC3(C)C4=CCC5C(C)(C)C(O)CCC5(C)C4CCC23C)CC(O)C1O (stereo not given)", "GI50": "16.3 µM (inactive)"}

Here is another compound to look at.
IN: Give SK-MEL-2 GI50 for COc1cc(O)c2c(=O)cc(C3(OC(C)=O)C=CC(OC4OC(CO)C(O)C(O)C4O)C=C3)oc2c1 (stereo not given)
OUT: > 100 µM (inactive)
